Measured values drawn from patent US20130261077A1 for this set.

# systemTested: FimH-CRD (Escherichia coli, UniProt P08191)
# Construct: The first 177 amino acids of the FimH protein; thrombin tag (printed as 'fusion protein with thrombin') (cleaved yes); made in house; host or cells: bacteria (pET21b plasmid)
# Sequence (P08191 22-177): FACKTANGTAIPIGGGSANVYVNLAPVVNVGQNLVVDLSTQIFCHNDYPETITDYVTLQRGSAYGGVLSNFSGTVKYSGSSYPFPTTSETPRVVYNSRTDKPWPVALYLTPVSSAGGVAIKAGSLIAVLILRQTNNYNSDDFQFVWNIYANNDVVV
# assayNotes: Competitive binding assay by fluorescence polarization, assay 2 (compounds prepared by robotics, plates frozen and thawed)
pKd: −log10 of the molar value.
propertyMeasured: pKd

molecule | propertyMeasured | number
OC[C@H]1O[C@H](c2cccc(/C=C/c3ccccc3)c2)[C@@H](O)[C@@H](O)[C@@H]1O [Compound 140] | pKd | 7.82
OC[C@H]1O[C@H](c2cccc(Oc3ncccn3)c2)[C@@H](O)[C@@H](O)[C@@H]1O [Compound 256] | pKd | 7.17
OC[C@H]1O[C@H](c2cccc(-c3nc4ccccc4[nH]3)c2)[C@@H](O)[C@@H](O)[C@@H]1O [Compound 163] | pKd | 7.09
CNC(=O)c1cc(C(=O)NC)cc(-c2ccccc2[C@H]2O[C@H](CO)[C@@H](O)[C@H](O)[C@@H]2O)c1 [Compound 40] | pKd | 6.35
CNC(=O)c1cc(Oc2cccc([C@H]3O[C@H](CO)[C@@H](O)[C@H](O)[C@@H]3O)c2)cc(C(=O)NC)c1 [Compound 64] | pKd | 7.68
COC(=O)c1cccc(C#Cc2ccc([C@H]3O[C@H](CO)[C@@H](O)[C@H](O)[C@@H]3O)cc2)c1 [Compound 88] | pKd | 7.93
OC[C@H]1O[C@H](c2cccc(OCCF)c2)[C@@H](O)[C@@H](O)[C@@H]1O [Compound 206] | pKd | 7.55
COc1cccc([C@H]2O[C@H](CO)[C@@H](O)[C@H](O)[C@@H]2O)c1 [Compound 44] | pKd | 7.30
OC[C@H]1O[C@H](c2cccc(-c3ccc(-c4nnc(-c5ccccn5)o4)cc3)c2)[C@@H](O)[C@@H](O)[C@@H]1O [Compound 120] | pKd | 7.89
CC1(COc2cccc(C3O[C@H](CO)[C@@H](O)[C@H](O)[C@@H]3O)c2)COC1 (some centres unmarked) [Compound 214] | pKd | 7.92
COC(=O)c1ccc(CCc2cccc([C@H]3O[C@H](CO)[C@@H](O)[C@H](O)[C@@H]3O)c2)cc1 [Compound 103] | pKd | 8.01
CC(=O)c1ccc(Oc2cccc([C@H]3O[C@H](CO)[C@@H](O)[C@H](O)[C@@H]3O)c2)cc1 [Compound 186] | pKd | 7.91
OC[C@H]1O[C@H](c2cccc(-c3nc4c(C(F)(F)F)cccc4[nH]3)c2)[C@@H](O)[C@@H](O)[C@@H]1O [Compound 171] | pKd | 7.49
OC[C@H]1O[C@H](c2cccc(-c3nc4c(Cl)cc(Cl)cc4[nH]3)c2)[C@@H](O)[C@@H](O)[C@@H]1O [Compound 162] | pKd | 7.40
